Here, each record is paired with measured EC50 data.
Biological target: Ba/F3-TPR-MET-D1228N cells (Homo sapiens, UniProt P08581, D1228N, cells depend on it)
Construct: fused on or other part: P12270 (Nucleoprotein TPR)
Sequence (P08581 whole entry D1228N, the tested form may be a part): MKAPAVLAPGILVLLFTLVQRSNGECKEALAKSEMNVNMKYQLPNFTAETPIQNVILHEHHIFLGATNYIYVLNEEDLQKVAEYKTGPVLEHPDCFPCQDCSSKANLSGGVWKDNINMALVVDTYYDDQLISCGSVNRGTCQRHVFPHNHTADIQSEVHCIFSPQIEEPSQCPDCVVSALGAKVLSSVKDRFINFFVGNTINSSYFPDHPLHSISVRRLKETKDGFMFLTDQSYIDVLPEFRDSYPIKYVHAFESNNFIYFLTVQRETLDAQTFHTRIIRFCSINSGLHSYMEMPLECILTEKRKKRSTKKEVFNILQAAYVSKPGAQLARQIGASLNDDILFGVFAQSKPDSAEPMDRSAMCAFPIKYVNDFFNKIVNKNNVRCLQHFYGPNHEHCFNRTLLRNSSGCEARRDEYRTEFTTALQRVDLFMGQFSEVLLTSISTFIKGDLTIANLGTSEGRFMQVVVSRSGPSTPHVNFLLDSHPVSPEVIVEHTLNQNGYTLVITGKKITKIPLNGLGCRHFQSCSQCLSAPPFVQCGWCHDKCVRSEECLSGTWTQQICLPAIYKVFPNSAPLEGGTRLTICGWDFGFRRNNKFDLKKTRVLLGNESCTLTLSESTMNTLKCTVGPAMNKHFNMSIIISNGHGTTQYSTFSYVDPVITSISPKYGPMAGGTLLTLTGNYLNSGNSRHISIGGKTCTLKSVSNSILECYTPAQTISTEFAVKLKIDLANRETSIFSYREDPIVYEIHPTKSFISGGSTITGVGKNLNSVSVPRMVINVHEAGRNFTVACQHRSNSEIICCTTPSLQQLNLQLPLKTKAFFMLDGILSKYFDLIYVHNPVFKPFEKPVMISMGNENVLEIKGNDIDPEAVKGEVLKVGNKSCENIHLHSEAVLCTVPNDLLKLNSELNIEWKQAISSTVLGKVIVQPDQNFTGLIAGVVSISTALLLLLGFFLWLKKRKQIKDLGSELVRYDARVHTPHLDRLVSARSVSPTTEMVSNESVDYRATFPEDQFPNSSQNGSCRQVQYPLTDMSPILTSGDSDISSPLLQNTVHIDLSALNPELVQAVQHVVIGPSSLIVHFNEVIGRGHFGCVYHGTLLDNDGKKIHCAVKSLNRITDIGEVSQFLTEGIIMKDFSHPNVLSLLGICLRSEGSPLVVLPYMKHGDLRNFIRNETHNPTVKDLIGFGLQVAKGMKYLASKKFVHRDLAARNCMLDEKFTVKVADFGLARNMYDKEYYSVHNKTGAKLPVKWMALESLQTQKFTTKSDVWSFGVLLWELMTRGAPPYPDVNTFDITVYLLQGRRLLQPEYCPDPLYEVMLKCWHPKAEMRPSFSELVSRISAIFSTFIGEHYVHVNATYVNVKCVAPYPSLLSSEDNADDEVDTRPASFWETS
Experiment: CellTiter-Glo Cell Viability Assay, Ba/F3-TPR-MET-D1228N
Details: 72 hours

Study these solved cases before continuing.
CNCCOc1cc2nccc(Oc3c(F)cc(NC(=O)c4cnccc4OC4CC4)cc3F)c2cc1OC [Example 54] ... ≤ 100 nM
COc1ccncc1C(=O)Nc1cc(F)c(Oc2ccnc3cc(OC)c(OC4(CO)CC4)nc23)c(F)c1 [Example 147] ... ≤ 100 nM
CNCCOc1cc2nccc(Oc3c(F)cc(NC(=O)c4cnc(NCCOC)cc4OC)cc3F)c2cc1OC [Example 46] ... ≤ 100 nM

Give EC50 (Ba/F3-TPR-MET-D1228N cells (Homo sapiens, UniProt P08581, D1228N, cells depend on it)) of the following molecule: CCOc1ccnc(F)c1C(=O)Nc1cc(F)c(Oc2ccnc3cc(OCCCNC)c(OC)cc23)c(F)c1 [Example 119]
100 to 1000 nM

Notebook: pull reported EC50 for Ba/F3-TPR-MET-D1228N cells (Homo sapiens, UniProt P08581, D1228N, cells depend on it), entry CNCCOc1ccc2c(Oc3c(F)cc(NC(=O)c4ccncc4OC4CC4)cc3F)ccnc2c1 [Example 81]
≤ 100 nM

// lookup EC50 | system=Ba/F3-TPR-MET-D1228N cells (Homo sapiens, UniProt P08581, D1228N, cells depend on it) | key= C[C@H](O)COc1ccc2c(Oc3c(F)cc(NC(=O)c4cnccc4OC4CC4)cc3F)ccnc2c1 [Example 102]
100 to 1000 nM

So what EC50 did CNCCOc1ccc2c(Oc3c(F)cc(NC(=O)c4cccnc4OC4CC4)cc3F)ccnc2c1 [Example 79] get with Ba/F3-TPR-MET-D1228N cells (Homo sapiens, UniProt P08581, D1228N, cells depend on it)?
100 to 1000 nM

Report EC50 for CNCCOc1cc2nccc(Oc3c(F)cc(NC(=O)c4cnc(Cl)cc4OC4CC4)cc3F)c2cc1OC [Example 112] tested on Ba/F3-TPR-MET-D1228N cells (Homo sapiens, UniProt P08581, D1228N, cells depend on it).
100 to 1000 nM

* * *

Target: Ba/F3-TPR-MET cells (Homo sapiens)
Construct: fused on or other part: P12270 (Nucleoprotein TPR)
Sequence (P08581 whole entry, change not shown, the tested form may be a part): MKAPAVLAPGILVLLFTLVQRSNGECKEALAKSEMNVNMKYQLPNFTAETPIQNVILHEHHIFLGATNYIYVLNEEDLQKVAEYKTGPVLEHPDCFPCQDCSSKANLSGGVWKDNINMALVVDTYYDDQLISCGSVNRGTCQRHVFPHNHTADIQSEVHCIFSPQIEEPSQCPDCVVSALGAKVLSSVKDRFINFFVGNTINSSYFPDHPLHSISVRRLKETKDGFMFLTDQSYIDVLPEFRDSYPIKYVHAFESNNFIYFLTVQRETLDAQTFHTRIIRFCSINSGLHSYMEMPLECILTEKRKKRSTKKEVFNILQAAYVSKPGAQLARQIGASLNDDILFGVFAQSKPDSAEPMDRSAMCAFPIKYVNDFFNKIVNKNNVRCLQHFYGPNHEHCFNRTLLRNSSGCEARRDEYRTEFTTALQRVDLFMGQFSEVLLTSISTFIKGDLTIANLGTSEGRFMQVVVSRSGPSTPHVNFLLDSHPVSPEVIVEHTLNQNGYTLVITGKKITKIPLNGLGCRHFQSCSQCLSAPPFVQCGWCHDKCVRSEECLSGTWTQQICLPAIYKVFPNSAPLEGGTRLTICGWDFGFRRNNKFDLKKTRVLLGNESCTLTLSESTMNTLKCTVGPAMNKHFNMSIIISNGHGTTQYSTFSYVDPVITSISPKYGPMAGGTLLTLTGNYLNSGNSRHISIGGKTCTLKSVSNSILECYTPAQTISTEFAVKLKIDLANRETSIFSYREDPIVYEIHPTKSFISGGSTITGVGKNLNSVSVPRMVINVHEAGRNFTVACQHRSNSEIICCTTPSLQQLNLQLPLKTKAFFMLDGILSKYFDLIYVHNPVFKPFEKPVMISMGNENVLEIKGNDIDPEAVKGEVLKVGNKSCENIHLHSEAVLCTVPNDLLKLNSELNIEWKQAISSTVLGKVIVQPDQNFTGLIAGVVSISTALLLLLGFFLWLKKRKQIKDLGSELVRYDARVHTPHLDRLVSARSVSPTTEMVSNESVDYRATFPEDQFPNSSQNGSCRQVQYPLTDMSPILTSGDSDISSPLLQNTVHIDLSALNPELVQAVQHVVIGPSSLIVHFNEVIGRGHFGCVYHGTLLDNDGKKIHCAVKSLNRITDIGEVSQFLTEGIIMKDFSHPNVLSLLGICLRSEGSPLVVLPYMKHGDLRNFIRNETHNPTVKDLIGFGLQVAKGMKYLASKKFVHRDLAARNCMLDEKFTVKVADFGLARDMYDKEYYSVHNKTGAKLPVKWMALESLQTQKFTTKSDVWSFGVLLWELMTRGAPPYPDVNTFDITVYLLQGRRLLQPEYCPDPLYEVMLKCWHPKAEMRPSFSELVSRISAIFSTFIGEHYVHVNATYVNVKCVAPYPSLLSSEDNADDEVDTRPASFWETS
Assay: CellTiter-Glo Cell Viability Assay, Ba/F3-TPR-MET
Details: 72 hours
measured attribute: EC50

Example entries and their recorded answers appear below.
CNCCOc1cc2nccc(Oc3c(F)cc(NC(=O)c4cnccc4OC4CC4)cc3F)c2cc1OC ... ≤ 0.1 µM
COc1cc2nccc(Oc3c(F)cc(NC(=O)c4cnccc4OC)cc3F)c2cc1OC1(CO)CC1 ... ≤ 0.1 µM
COc1ccc2c(Oc3c(F)cc(NC(=O)c4cnccc4OC4CC4)cc3F)ccnc2c1 ... 0.1 to 1 µM
CNCCOc1cc2ncnc(Oc3c(F)cc(NC(=O)c4cnccc4OC)cc3F)c2cc1OC ... 0.1 to 1 µM
CCCCOc1ccncc1C(=O)Nc1cc(F)c(Oc2ccnc3cc(OCCNC)c(OC)cc23)c(F)c1 ... ≤ 0.1 µM

API: the following record is the query input.
Param item = COCCOc1cc2nccc(Oc3c(F)cc(NC(=O)c4cnccc4OC4CC4)cc3F)c2cc1OC ; retrieve measured EC50.
≤ 0.1 µM

Just for reference, patent US11753395B2 is where these values come from.
